The measured values listed here are drawn from patent US9409884B2.

- test.target: AMPK
- experiment.summary: AMPK activation, enzyme-linked immunosorbent assay
- Assay type: biochemical
- assay.conditions: Table 9, compounds of Table 2
pEC50: −log10 of the molar value.
Measured pEC50 of individual entries

{"compound": "O=C(NC1CCN(C(=O)c2ccc(C(F)(F)F)cc2)CC1)c1ccc2[nH]c3c(c2c1)CN(c1ccc(F)cc1)CC3", "pEC50": "4.30 to 5.00"}
{"compound": "O=C(NC1CCN(Cc2ccncc2)CC1)c1ccc2[nH]c3c(c2c1)CN(Cc1ccccc1)CC3", "pEC50": "5.00 to 5.30"}
{"compound": "O=C(NC1CCN(Cc2cccnc2)CC1)c1ccc2[nH]c3c(c2c1)CN(c1ccc(F)cc1)CC3", "pEC50": "< 4.00"}

Q. I have this molecule here, `O=C(NC1CCN(S(=O)(=O)c2ccc(F)cc2)CC1)c1ccc2[nH]c3c(c2c1)CN(Cc1ccc(C(F)(F)F)cc1)CC3` , and I need its recorded pEC50.
A. 5.30 to 6.00

Q. Consider the molecule `O=C(NC1CCN(Cc2ccc(C(F)(F)F)cc2)CC1)c1ccc2[nH]c3c(c2c1)CN(c1ccc(F)cc1)CC3` and give its measured pEC50.
A. 5.00 to 5.30

Q. Sample `CC(C)(C)OC(=O)N1CCC(NC(=O)c2ccc3[nH]c4c(c3c2)CN(Cc2ccc(C(F)(F)F)cc2)CC4)CC1` — what was its pEC50?
A. 6.00 to 6.30

---

Measured pEC50 of individual entries
- test.target: AMPK
- experiment.summary: AMPK activation, enzyme-linked immunosorbent assay
- Type: biochemical
- assay.conditions: Table 8, compounds of Table 1
pEC50: −log10 of the molar value.

{"compound": "Cc1c(C(=O)NC2CCN(Cc3ccc(C#N)cc3)CC2)oc2cc(OC3CCN(c4ccc(C(F)(F)F)cc4)CC3)ccc12", "measured.value": "> 7.00"}

Q. Param readout= pEC50; system= AMPK; entry= `CC(C)(C)OC(=O)N1CC[C@H](NC(=O)c2ccc(OC3CCN(c4ccc(C(F)(F)F)cc4)CC3)cn2)C1` ; returns value.
A. 6.30 to 7.00

Q. Query the reported pEC50 for AMPK; item: `N#Cc1ccc(N2CCC(Oc3ccc(C(=O)NC4CCN(Cc5cccnc5)CC4)nc3)CC2)cc1`
A. 6.30 to 7.00

---

- test.target: AMPK
- experiment.summary: AMPK activation, enzyme-linked immunosorbent assay
- Assay type: biochemical
- assay.conditions: Table 12, compounds of Table 5
pEC50: −log10 of the molar value.
assay.metric: pEC50

Look over these answered cases.
{"compound": "O=C(NC1CCN(Cc2ccc(Cl)cc2)CC1)c1ccc(OC2CCN(Cc3ccc(Cl)cc3)CC2)c(F)c1", "assay.metric": "pEC50", "measured.value": "> 6.00"}
{"compound": "CN1CCC(NC(=O)c2ccc(OC3CCN(Cc4ccc(C(F)(F)F)cc4)CC3)c(Cl)c2)CC1", "assay.metric": "pEC50", "measured.value": "5.00 to 6.00"}
{"compound": "O=C(NC1CCN(Cc2ccccc2)CC1)c1ccc(OC2CCN(Cc3ccccc3C(F)(F)F)CC2)c(Cl)c1", "assay.metric": "pEC50", "measured.value": "4.70 to 5.00"}
{"compound": "O=C(NC1CCN(Cc2ccccc2)CC1)c1ccc(OC2CCN(Cc3ccc(C(F)(F)F)cc3)CC2)c(F)c1", "assay.metric": "pEC50", "measured.value": "> 6.00"}
{"compound": "O=C(NC1CCN(Cc2ccccc2)CC1)c1ccc(OC2CCN(Cc3ccc(Cl)cc3)CC2)c(F)c1", "assay.metric": "pEC50", "measured.value": "> 6.00"}

Q. GET /values?readout=pEC50&system=AMPK&item= `O=C(NC1CCN(Cc2ccccc2)CC1)c1ccc(OC2CCN(Cc3ccc(OC(F)(F)F)cc3)CC2)cc1`
A. > 6.00

Q. Which measured pEC50 belongs to `O=C(NC1CCN(Cc2ccccc2)CC1)c1ccc(OC2CCN(Cc3ccc(F)c(F)c3)CC2)c(Cl)c1` , tested on AMPK?
A. > 6.00
